system: LOX IMVI melanoma; assay: NCI-60 one-dose screen, 48 h; details: 10 µM unless noted
Compounds without any hit were thinned out: in the full panel of roughly 83,000, 20% have a hit. Activity calls are given as the source filed them. The calls were made as follows: active = growth percent below 10; inactive = the rest.
Labels: yes (active), no (inactive)

# Compound, Group label
rows = [
    ("CCC/C(=N\\NC(N)=O)C(OC)OC", "no"),
    ("CCCCc1oc2ccccc2c1C(=O)c1ccc(O)cc1", "no"),
    ("CC(=O)N(Cc1ccccc1)c1nc2ccc(O)c(CN(C)C)c2s1", "no"),
    ("CCN1C(=O)N(CC)C2C1NN=C1SCC(=O)N12 (stereo unspecified)", "no"),
    ("O=C(/C=C/c1ccccc1)Nc1ncc(Cc2ccccc2)s1", "yes"),
    ("CN(C)Cc1ccc(C(=O)Nc2ccc3ncnc(Nc4ccc(Oc5cccc(F)c5)c(Cl)c4)c3c2)cc1", "yes"),
]
